Tested on: HT-29
Assay: NCI tumour cell line growth inhibition, 48 h
Active and inactive are the calls of the source. Rule as the data show it: active = GI50 up to about 1.1 µM and inactive = higher.
attribute-measured: GI50

[[record]]
compound = "CN(C)N1C(=O)C(=O)N(c2cccc3ccccc23)C1=O"
result = "> 10 µM (inactive)"


Input: Could you share which GI50 value was measured for CC12ON(P(=O)(c3ccccc3)c3ccccc3)C(C)(c3ccccc31)c1ccccc12 ?
Output: > 100 µM (inactive)

Input: Moving on to CC(=O)c1[nH]c(Nc2ccc(C)cc2)c(C(=S)Nc2ccccc2)c1N
Output: 25.8 µM (inactive)

Input: Moving on to COc1ccc(CC2COc3cc(O)cc(O)c3C2=O)cc1O (stereo unspecified)
Output: 13.6 µM (inactive)

Input: Moving on to COc1ccc(/C=C/C(=O)c2sc(N)nc2C)cc1
Output: > 100 µM (inactive)

Input: Moving on to Cc1ccc(/N=N/c2ccc(N(CCC#N)CCC#N)cc2C)c(Br)c1
Output: 3.53 µM (inactive)
